tgt: T1, mouse VEGF164 (mouse, UniProt Q00731)
T1 chain: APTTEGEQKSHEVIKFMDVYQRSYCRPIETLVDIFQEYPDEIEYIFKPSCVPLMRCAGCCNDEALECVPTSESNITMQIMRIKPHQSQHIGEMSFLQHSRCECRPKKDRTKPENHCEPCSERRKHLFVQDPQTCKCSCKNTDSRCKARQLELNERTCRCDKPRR
assay_method_text: SPR, pH 5
measured_attribute: Kd (nM)
Give the number; nM is assumed, so skip it.

- binder: "567-max (antibody, V domains shown) VH: EVQLVESGGGLVQPGGSLRLSCSVSGFSLSDYYMCWVRQAPGKGLEWVGCLDYFGSTDDASWAKGRFTISKDTSKNTVYLQMNSLRAEDTAVYYCARTDDSRGWGLNIWGQGTLVTVSS VL: EIVMTQSPSTLSASVGDRVIITCQADQSIYIWLSWYQQKPGKAPKLLIYKASTLESGVPSRFSGSGSGTQFTLTISSLQPDDFATYYCQNNAHYSTNGGTFGQGTKLTVLG"
  measured_attribute: "Kd"
  unit_tag: "nM"
  value_reported: 0.0929
- binder: "509-max (antibody, V domains shown) VH: EVQLVESGGGLVQPGGSLRLSCTASGFSLSSYYMCWVRQAPGKGLEWVGCLDYVGDTDYASWAKGRFTISKDASKNTVYLQMNSLRAEDTAVYYCARTDDSRGWGLNIWGQGTLVTVSS VL: EIVMTQSPSTLSASVGDRVIITCQASQNIRIWLSWYQQKPGKAPKLLIYKASTLESGVPSRFSGSGSGTEFTLTISSLQPDDFATYYCQNNAHYSTNGGTFGQGTKLTVLG"
  measured_attribute: "Kd"
  unit_tag: "nM"
  value_reported: 1.45

Task item: # lookup: Kd of 567-min (antibody, V domains shown) VH: EVQLVESGGGLVQPGGSLRLSCAASGFSLSDYYMCWVRQAPGKGLEWVSCLDYFGSTDDASWAKGRFTISRDNSKNTLYLQMNSLRAEDTAVYYCAKTDDSRGWGLNIWGQGTLVTVSS VL: EIVMTQSPSTLSASVGDRVIITCQADQSIYIWLSWYQQKPGKAPKLLIYKASTLESGVPSRFSGSGSGAEFTLTISSLQPDDFATYYCQNNAHYSTNGGTFGQGTKLTVLG
Reply: 0.17
